- SYSTEM: ALPK1 (Homo sapiens (Human), UniProt Q96QP1)
- Sequence (Q96QP1 whole entry): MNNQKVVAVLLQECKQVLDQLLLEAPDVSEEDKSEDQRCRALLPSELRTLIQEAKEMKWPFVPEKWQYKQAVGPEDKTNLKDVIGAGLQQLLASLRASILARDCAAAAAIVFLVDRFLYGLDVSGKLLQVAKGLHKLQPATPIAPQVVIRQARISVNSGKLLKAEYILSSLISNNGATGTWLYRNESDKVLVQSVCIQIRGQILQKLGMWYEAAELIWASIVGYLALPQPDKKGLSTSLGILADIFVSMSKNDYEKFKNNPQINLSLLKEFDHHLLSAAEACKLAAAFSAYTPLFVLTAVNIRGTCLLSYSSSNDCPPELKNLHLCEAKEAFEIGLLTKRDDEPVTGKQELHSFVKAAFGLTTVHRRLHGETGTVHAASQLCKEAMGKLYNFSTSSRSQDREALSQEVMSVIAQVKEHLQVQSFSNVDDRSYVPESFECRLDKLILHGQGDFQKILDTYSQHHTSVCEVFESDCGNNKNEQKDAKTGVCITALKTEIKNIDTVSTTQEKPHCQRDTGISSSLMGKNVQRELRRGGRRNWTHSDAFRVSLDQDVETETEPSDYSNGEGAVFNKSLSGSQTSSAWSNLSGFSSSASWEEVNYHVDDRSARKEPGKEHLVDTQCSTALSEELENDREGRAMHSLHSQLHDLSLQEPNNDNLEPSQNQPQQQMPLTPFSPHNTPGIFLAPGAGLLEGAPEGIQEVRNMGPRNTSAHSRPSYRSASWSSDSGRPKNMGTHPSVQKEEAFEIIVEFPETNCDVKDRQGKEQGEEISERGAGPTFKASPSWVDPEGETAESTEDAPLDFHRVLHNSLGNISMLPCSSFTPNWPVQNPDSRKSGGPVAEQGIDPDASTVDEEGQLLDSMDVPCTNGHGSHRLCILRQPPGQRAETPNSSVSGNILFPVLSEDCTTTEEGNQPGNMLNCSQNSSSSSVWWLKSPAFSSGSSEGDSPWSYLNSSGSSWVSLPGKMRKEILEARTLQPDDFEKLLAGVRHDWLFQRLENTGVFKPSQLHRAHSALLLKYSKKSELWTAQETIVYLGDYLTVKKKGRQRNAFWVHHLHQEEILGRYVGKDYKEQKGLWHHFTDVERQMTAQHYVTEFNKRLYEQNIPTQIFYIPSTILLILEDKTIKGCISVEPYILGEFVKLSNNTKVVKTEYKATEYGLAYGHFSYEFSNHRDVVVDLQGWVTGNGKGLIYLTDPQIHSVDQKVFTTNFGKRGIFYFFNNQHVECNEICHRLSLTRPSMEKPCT
- PROTOCOL SUMMARY: ALPK1 in vitro kinase assay (HTRF of TIFA phosphorylation)
- Format: biochemical
- MEASUREMENT CONDITIONS: ALPK1 2 nM, TIFA substrate, ADP-Heptose activator, HTRF readout
Doc: threshold 0.1 µM (exclusive). Items with IC50 beneath it return rule met; others return rule not met.

Past entries and their recorded results:
MOLECULE | SYSTEM | CLASS LABEL
COC[C@@](C)(c1ccc(Cl)cc1)c1csc(NC(=O)c2c(F)cc(N3CCNCC3)cc2F)n1 [Example C025] | ALPK1 (Homo sapiens (Human), UniProt Q96QP1) | rule met
C#C[C@@](C)(c1ccc(F)cc1)c1csc(NC(=O)c2c(F)cc(N3CCC(N)C3)cc2F)n1 (stereo in doubt) [Example B090] | ALPK1 (Homo sapiens (Human), UniProt Q96QP1) | rule not met
COc1ccc(C(C)(C)c2csc(NC(=O)c3ccc(C(=O)NC4CCN(C)CC4)cc3)n2)cc1 [Example B030] | ALPK1 (Homo sapiens (Human), UniProt Q96QP1) | rule not met

Take the molecule COc1ccc(C(C)(C)c2csc(NC(=O)c3ccc(NC4CCN(C)CC4)cc3)n2)cc1 [Example B028] and say whether its IC50 is less than 0.1 µM. rule not met

Strictly below 0.1 µM in IC50? CCOCC(C)(c1ccccc1)c1csc(NC(=O)c2c(F)cc(N3CCNCC3)cc2F)n1 (stereo not drawn) [Example C012] rule met

hey, is IC50 for COc1ccc(C(C)(C)c2csc(NC(=O)c3ccc(OCCCN4CCNCC4)cc3)n2)cc1 [Example B022] lower than 0.1 µM or not? rule not met

In the record for C#C[C@](C)(c1ccc(Cl)c(F)c1)c1csc(NC(=O)c2c(F)cc(N3CCNCC3)cc2F)n1 (stereo in doubt) [Example C037] , is IC50 less than 0.1 µM? rule not met

Lab log: compare recorded IC50 with 0.1 µM; is it strictly lower for COc1ccc(C(C)(C)c2csc(NC(=O)c3cccc(OCCCN4CCNCC4)c3)n2)cc1 [Example B023] ? rule not met

Strictly below 0.1 µM in IC50? C#CC(C)(c1ccc(F)cc1)c1csc(NC(=O)c2c(F)cc(-c3cnc(CN)cn3)cc2F)n1 (stereo not drawn) [Example B104] rule not met

State whether 0.1 µM exceeds IC50 recorded for C#CC(CC)(c1ccc(Cl)cc1)c1csc(NC(=O)c2c(F)cc(N3CCNCC3)cc2F)n1 (stereo not drawn) [Example C047] . rule not met

Below 0.1 µM on IC50? Entry CCOCC(C)(c1ccccc1)c1csc(NC(=O)c2c(F)cc(N3CCNCC3)cc2F)n1 (stereo not drawn) [Example C031] rule not met

Does the reported IC50 of the following molecule sit strictly below 0.1 µM? COc1ccc(C(C)(C)c2csc(NC(=O)c3cccc(CN4CCN(CCO)CC4)c3)n2)cc1 [Example B018] rule not met

Here's an entry: C#C[C@@](C)(c1ccc(C)cc1)c1csc(NC(=O)c2c(F)cc(N3CCNCC3)cc2F)n1 (stereo in doubt) [Example C041] . Is its IC50 below 0.1 µM? rule met

Strictly below 0.1 µM in IC50? COc1ccc(C(C)(C)c2csc(NC(=O)c3ccc(NCCO)cc3)n2)cc1 [Example B060] rule not met

A record lists COc1ccc(C(C)(C)c2csc(NC(=O)c3ccc(N4CCNCC4)c(OC)c3)n2)cc1 [Example B039] . Is its IC50 below 0.1 µM? rule not met

Does the reported IC50 of CC(C)(c1ccc(Br)cc1)c1csc(NC(=O)NCc2cc(F)c(N3CCNCC3)c(F)c2)n1 [Example B037] stay below 0.1 µM? rule met

Check if IC50 falls below 0.1 µM for COc1ccc(C(C)(C)c2csc(NC(=O)c3ccc(CN4CCN(CCO)CC4)nc3)n2)cc1 [Example B052] . rule not met

Find out if reported IC50 for C#C[C@@](C)(c1ccc(F)cc1)c1csc(NC(=O)c2c(F)cc(N3CCNCC3)cc2F)n1 (stereo in doubt) [Example C035] is less than 0.1 µM rule met

Lab note: confirm whether the reported IC50 for this molecule is below 0.1 µM, equality not counting. molecule: COc1ccc(C(C)(C)c2csc(NC(=O)c3ccc(CN4CCNCC4)cc3F)n2)cc1 [Example B013] rule not met

Does this molecule meet the criterion IC50 < 0.1 µM? C#C[C@](C)(c1ccc(F)cc1)c1csc(NC(=O)c2c(F)cc(N3CCNCC3)cc2F)n1 (stereo in doubt) [Example C034] rule met

Consider C#CC(C)(c1ccc(Cl)cc1)c1csc(NC(=O)c2c(F)cc(N3CCNCC3CC)cc2F)n1 (stereo not drawn) [Example B101] . Does its IC50 lie strictly below 0.1 µM? rule met

Determine if COc1ccc(C(C)(C)c2csc(NC(=O)c3ccc(N4CCNCC4)cc3Cl)n2)cc1 [Example B008] shows IC50 strictly lower than 0.1 µM. rule met
